Data provenance: ChEMBL document CHEMBL1833820

Recorded IC50 for the following molecules
Molecular target: Acetylcholinesterase (Electrophorus electricus)
Sequence (O42275 whole entry): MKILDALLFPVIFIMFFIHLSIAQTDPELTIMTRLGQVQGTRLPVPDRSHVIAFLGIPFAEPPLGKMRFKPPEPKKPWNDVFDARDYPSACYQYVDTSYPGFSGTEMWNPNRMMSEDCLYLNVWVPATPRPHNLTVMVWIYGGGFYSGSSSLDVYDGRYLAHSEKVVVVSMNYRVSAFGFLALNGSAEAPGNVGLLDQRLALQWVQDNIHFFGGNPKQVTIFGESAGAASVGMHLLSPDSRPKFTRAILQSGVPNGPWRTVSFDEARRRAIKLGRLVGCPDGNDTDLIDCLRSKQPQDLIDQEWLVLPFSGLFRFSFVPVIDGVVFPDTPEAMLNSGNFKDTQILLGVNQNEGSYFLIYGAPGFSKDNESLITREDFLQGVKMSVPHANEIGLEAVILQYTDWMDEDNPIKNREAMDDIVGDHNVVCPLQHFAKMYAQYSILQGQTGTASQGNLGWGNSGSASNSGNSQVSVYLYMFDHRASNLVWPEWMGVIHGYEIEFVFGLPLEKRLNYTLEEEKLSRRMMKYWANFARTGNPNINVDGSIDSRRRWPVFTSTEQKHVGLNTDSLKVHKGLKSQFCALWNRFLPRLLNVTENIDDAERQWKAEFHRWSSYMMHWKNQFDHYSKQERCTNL
Endpoint label: IC50

{"Molecule": "COc1cc(CCCOC(=O)Nc2ccccc2)cc2cc(-c3ccc4c(c3)OCO4)oc12", "Reported measurement": "3300 nM"}
{"Molecule": "CC[C@H](C)C(=O)OCCCc1ccc2oc(-c3ccc4c(c3)OCO4)cc2c1", "Reported measurement": "5500 nM"}
{"Molecule": "CCCCCCCC/C=C\\CCCCCCCC(=O)OCCCc1ccc2oc(-c3ccc4c(c3)OCO4)cc2c1", "Reported measurement": "2200 nM"}
{"Molecule": "CCCCC/C=C\\C/C=C\\CCCCCCCC(=O)OCCCc1cc(OC)c2oc(-c3ccc4c(c3)OCO4)cc2c1", "Reported measurement": "1400 nM"}
{"Molecule": "CC[C@H](C)C(=O)OCCCc1cc(OC)c2oc(-c3ccc4c(c3)OCO4)cc2c1", "Reported measurement": "4800 nM"}
{"Molecule": "CCCCCCCC/C=C\\CCCCCCCC(=O)OCCCc1cc(OC)c2oc(-c3ccc4c(c3)OCO4)cc2c1 [EGONOL OLEATE]", "Reported measurement": "1400 nM"}
{"Molecule": "CCCCC/C=C\\C/C=C\\CCCCCCCC(=O)OCCCc1ccc2oc(-c3ccc4c(c3)OCO4)cc2c1", "Reported measurement": "2000 nM"}

====

Test system Acetylcholinesterase (Homo sapiens, UniProt P22303), pIC50 listed for each of the compounds.
pIC50: −log10 of the molar value.

{"Compound": "CC[C@H](C)C(=O)OCCCc1cc(OC)c2oc(-c3ccc4c(c3)OCO4)cc2c1", "pIC50": 5.23}
{"Compound": "COc1cc(CCCOC(=O)Nc2ccccc2)cc2cc(-c3ccc4c(c3)OCO4)oc12", "pIC50": 5.35}
{"Compound": "CCCCCCCC/C=C\\CCCCCCCC(=O)OCCCc1cc(OC)c2oc(-c3ccc4c(c3)OCO4)cc2c1 [EGONOL OLEATE]", "pIC50": 5.74}
{"Compound": "CCCCC/C=C\\C/C=C\\CCCCCCCC(=O)OCCCc1cc(OC)c2oc(-c3ccc4c(c3)OCO4)cc2c1", "pIC50": 5.77}
{"Compound": "CCCCCCCC/C=C\\CCCCCCCC(=O)OCCCc1ccc2oc(-c3ccc4c(c3)OCO4)cc2c1", "pIC50": 5.51}
{"Compound": "CC[C@H](C)C(=O)OCCCc1ccc2oc(-c3ccc4c(c3)OCO4)cc2c1", "pIC50": 5.21}
{"Compound": "CCCCC/C=C\\C/C=C\\CCCCCCCC(=O)OCCCc1ccc2oc(-c3ccc4c(c3)OCO4)cc2c1", "pIC50": 5.57}

====

Biological target: Acetylcholinesterase (Homo sapiens)
Sequence (P22303 whole entry): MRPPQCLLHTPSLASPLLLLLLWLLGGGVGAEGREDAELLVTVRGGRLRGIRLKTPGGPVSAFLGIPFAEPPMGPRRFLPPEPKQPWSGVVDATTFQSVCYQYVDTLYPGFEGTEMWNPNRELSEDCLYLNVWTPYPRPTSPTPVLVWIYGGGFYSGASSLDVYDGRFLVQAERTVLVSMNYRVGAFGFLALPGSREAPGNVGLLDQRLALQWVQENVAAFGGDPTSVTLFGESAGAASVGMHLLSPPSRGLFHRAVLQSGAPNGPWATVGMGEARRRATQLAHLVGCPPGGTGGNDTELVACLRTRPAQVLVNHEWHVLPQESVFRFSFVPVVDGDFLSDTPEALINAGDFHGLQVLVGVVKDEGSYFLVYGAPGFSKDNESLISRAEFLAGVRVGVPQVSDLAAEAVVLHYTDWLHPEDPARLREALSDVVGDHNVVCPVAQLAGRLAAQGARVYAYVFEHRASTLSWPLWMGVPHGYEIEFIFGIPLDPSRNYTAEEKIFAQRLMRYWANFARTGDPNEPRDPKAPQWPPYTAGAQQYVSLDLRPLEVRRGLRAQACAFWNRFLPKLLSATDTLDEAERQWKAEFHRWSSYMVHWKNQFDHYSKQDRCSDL
Assay: Inhibition of human serum BChE using butyrylthiocholine iodide as substrate by spectrophotometric method
Active and inactive are the calls of the source. The calls are words filed in the database; no cut-off is given here.

{"Compound": "COc1cc(CCCO)cc2cc(-c3ccc4c(c3)OCO4)oc12", "Target under test": "Acetylcholinesterase (Homo sapiens)", "inhibition": "inactive"}
{"Compound": "CCCCCCCC/C=C\\CCCCCCCC(=O)OCCCc1ccc2oc(-c3ccc4c(c3)OCO4)cc2c1", "Target under test": "Acetylcholinesterase (Homo sapiens)", "inhibition": "inactive"}
{"Compound": "CCCCC/C=C\\C/C=C\\CCCCCCCC(=O)OCCCc1ccc2oc(-c3ccc4c(c3)OCO4)cc2c1", "Target under test": "Acetylcholinesterase (Homo sapiens)", "inhibition": "inactive"}
{"Compound": "O=CCCCCCCCC(=O)OCCCc1ccc2oc(-c3ccc4c(c3)OCO4)cc2c1", "Target under test": "Acetylcholinesterase (Homo sapiens)", "inhibition": "inactive"}
{"Compound": "CCCC(=O)OCCCc1cc(OC)c2oc(-c3ccc4c(c3)OCO4)cc2c1", "Target under test": "Acetylcholinesterase (Homo sapiens)", "inhibition": "inactive"}
{"Compound": "CCCCCCCC/C=C\\CCCCCCCC(=O)OCCCc1cc(OC)c2oc(-c3ccc4c(c3)OCO4)cc2c1 [EGONOL OLEATE]", "Target under test": "Acetylcholinesterase (Homo sapiens)", "inhibition": "inactive"}
{"Compound": "COc1cc(CCCOC(=O)Nc2ccccc2)cc2cc(-c3ccc4c(c3)OCO4)oc12", "Target under test": "Acetylcholinesterase (Homo sapiens)", "inhibition": "inactive"}
{"Compound": "OCCCc1ccc2oc(-c3ccc4c(c3)OCO4)cc2c1", "Target under test": "Acetylcholinesterase (Homo sapiens)", "inhibition": "inactive"}
{"Compound": "CCCCC/C=C\\C/C=C\\CCCCCCCC(=O)OCCCc1cc(OC)c2oc(-c3ccc4c(c3)OCO4)cc2c1", "Target under test": "Acetylcholinesterase (Homo sapiens)", "inhibition": "inactive"}
{"Compound": "COc1cc(CCCOC(=O)NC(C)(C)C)cc2cc(-c3ccc4c(c3)OCO4)oc12", "Target under test": "Acetylcholinesterase (Homo sapiens)", "inhibition": "inactive"}
{"Compound": "COc1cc(CCCOC(C)=O)cc2cc(-c3ccc4c(c3)OCO4)oc12", "Target under test": "Acetylcholinesterase (Homo sapiens)", "inhibition": "inactive"}
{"Compound": "COc1cc(CCCOC(=O)C(C)C)cc2cc(-c3ccc4c(c3)OCO4)oc12", "Target under test": "Acetylcholinesterase (Homo sapiens)", "inhibition": "inactive"}
{"Compound": "COc1cc(CCCOC(=O)CCCCCCCC=O)cc2cc(-c3ccc4c(c3)OCO4)oc12", "Target under test": "Acetylcholinesterase (Homo sapiens)", "inhibition": "inactive"}
{"Compound": "COc1cc(CCC(=O)O)cc2cc(-c3ccc4c(c3)OCO4)oc12", "Target under test": "Acetylcholinesterase (Homo sapiens)", "inhibition": "inactive"}
{"Compound": "CCC(=O)OCCCc1cc(OC)c2oc(-c3ccc4c(c3)OCO4)cc2c1", "Target under test": "Acetylcholinesterase (Homo sapiens)", "inhibition": "inactive"}
{"Compound": "COc1cc(CCC=O)cc2cc(-c3ccc4c(c3)OCO4)oc12", "Target under test": "Acetylcholinesterase (Homo sapiens)", "inhibition": "inactive"}
{"Compound": "CC[C@H](C)C(=O)OCCCc1cc(OC)c2oc(-c3ccc4c(c3)OCO4)cc2c1", "Target under test": "Acetylcholinesterase (Homo sapiens)", "inhibition": "inactive"}
{"Compound": "CC(=O)OCCCc1ccc2oc(-c3ccc4c(c3)OCO4)cc2c1", "Target under test": "Acetylcholinesterase (Homo sapiens)", "inhibition": "inactive"}
{"Compound": "CC[C@H](C)C(=O)OCCCc1ccc2oc(-c3ccc4c(c3)OCO4)cc2c1", "Target under test": "Acetylcholinesterase (Homo sapiens)", "inhibition": "inactive"}
